B1: glmS ribozyme (parent)
chain: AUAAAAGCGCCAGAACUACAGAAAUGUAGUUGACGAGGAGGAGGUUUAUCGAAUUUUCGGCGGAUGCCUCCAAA

variants of: B1; assay: KM; higher = weaker cofactor use; RNA array; settings: with glucosamine-6-phosphate
Readout Type: KM (µM)

In [3]: df
Out[3]:
   mutation_descriptor  units  test_result
0                 U65A     µM         2260
1        A6U A39U C70U     µM          506
2            U30G A64G     µM         1440

Just for reference, the supplement of paper PMC7125110 is where these values come from.
